molecular target: Cysteine protease falcipain-3 (Plasmodium falciparum, UniProt Q9NBA7); assay: Inhibition of Plasmodium falciparum recombinant falcipain-3
Sequence (Q9NBA7 whole entry): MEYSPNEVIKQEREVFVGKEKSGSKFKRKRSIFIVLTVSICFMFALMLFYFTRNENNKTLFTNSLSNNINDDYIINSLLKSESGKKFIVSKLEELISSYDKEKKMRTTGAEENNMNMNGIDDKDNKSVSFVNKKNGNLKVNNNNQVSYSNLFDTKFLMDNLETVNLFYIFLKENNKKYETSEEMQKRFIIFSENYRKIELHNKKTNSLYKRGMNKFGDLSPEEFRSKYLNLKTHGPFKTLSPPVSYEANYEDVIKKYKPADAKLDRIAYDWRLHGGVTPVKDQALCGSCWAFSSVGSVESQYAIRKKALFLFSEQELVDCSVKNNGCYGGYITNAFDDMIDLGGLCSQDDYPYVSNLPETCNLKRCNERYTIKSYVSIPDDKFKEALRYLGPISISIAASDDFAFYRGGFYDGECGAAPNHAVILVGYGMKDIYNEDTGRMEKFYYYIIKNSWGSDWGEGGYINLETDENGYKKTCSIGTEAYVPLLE
pIC50: −log10 of the molar value.
The reader will find reported pIC50 values listed item by item below.
property-name: pIC50

>>> obs_value("O=C(N/N=C/c1ccccc1O)c1cccc(C(=O)N/N=C/c2ccccc2O)n1")
4.98
>>> obs_value("O=C(N/N=C/c1ccc(/C=N/NC(=O)c2ccccc2O)cc1)c1ccccc1O")
4.56
>>> obs_value("Oc1cccc(/C=N\\c2cccc3c(/N=C/c4cccc(O)c4O)cccc23)c1O")
5.24
>>> obs_value("CC(C)C[C@H](NC(=O)[C@H]1O[C@@H]1C(=O)O)C(=O)NCCCCN=C(N)N [E-64]")
7.46
>>> obs_value("C/C(=N\\NS(=O)(=O)c1ccc(C)cc1)c1c(O)c2ccccc2oc1=O")
4.86
>>> obs_value("O=C(CSc1nnnn1-c1ccccc1)Nc1ccc(-n2cnnn2)cc1")
5.27
>>> obs_value("O=C(CN1C(=O)/C(=N\\NC(=O)c2ccncc2)c2ccccc21)Nc1ccccc1")
4.21

----------
target: Cysteine protease (Leishmania donovani) (UniProt Q95WR6); experiment: Inhibition of Leishmania donovani cysteine protease
Sequence (Q95WR6 as listed by the source): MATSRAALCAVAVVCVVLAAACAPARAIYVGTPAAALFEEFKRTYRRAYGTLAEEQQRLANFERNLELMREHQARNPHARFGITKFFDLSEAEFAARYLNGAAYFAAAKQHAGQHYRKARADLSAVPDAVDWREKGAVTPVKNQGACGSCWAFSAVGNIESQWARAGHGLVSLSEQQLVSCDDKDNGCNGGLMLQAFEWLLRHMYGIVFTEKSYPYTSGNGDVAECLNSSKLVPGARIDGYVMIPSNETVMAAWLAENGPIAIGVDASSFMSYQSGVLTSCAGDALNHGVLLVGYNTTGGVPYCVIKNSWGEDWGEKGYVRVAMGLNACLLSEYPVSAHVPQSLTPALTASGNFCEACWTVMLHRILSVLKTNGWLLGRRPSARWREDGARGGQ
Activity calls are given as the source filed them. The rule behind the calls is not given here.
property-name: Activity

>>> obs_value("Cc1cccc(NC(=O)CCC(=O)N/N=C/c2cc(Cl)ccc2O)c1")
"inactive"
>>> obs_value("CCCc1cc(O)nc(SCC(=O)Nc2ccccc2)n1")
"inactive"
>>> obs_value("Oc1ccc(Nc2nc(-c3cccnc3)cs2)cc1")
"inactive"
>>> obs_value("CCOP(=O)(CC(=O)NNC(=O)Nc1cccc2ccccc12)OCC")
"inactive"
>>> obs_value("O=C(NCc1ccc(/C=c2/sc3n(c2=O)CCN=3)o1)C(=O)Nc1ccccc1")
"inactive"
>>> obs_value("COC(=O)c1ccccc1NC(=O)COC(=O)CSc1nc(C)cc(C)n1")
"inactive"
>>> obs_value("O=C(N/N=C/c1ccccc1O)c1cccc(C(=O)N/N=C/c2ccccc2O)n1")
"inactive"
>>> obs_value("OC[C@H](O)/C=N/Nc1nc(Nc2ccccc2)nc(N2CCCCC2)n1")
"inactive"
>>> obs_value("C/C(=N\\NS(=O)(=O)c1ccc(C)cc1)c1c(O)c2ccccc2oc1=O")
"inactive"
>>> obs_value("N#CCC(=O)N/N=C\\c1ccc(OCC(=O)Nc2ccc(F)cc2)cc1")
"inactive"
>>> obs_value("CCCS(=O)(=O)N1CCN(S(=O)(=O)c2ccc3ccccc3c2)CC1")
"inactive"

----------
target: UniProt Q9NBA7; assay: Inhibition of Plasmodium falciparum recombinant falcipain-3
The reader will find reported IC50 values listed item by item below.
property-name: IC50 (µM)

>>> obs_value("Cc1cccc(NC(=O)CCC(=O)N/N=C/c2cc(Cl)ccc2O)c1")
5.4
>>> obs_value("Oc1ccc(/C=N/c2ccc(/N=C/c3ccc(O)cc3O)c(Cl)c2)c(O)c1")
7.5

----------
test system: Vero; test: Cytotoxicity against Vero cells by Neutral red assay; type: cell-based; details: chlorocebus sabaeus
pIC50: −log10 of the molar value.
property-name: pIC50

>>> obs_value("Oc1cccc(/C=N\\c2cccc3c(/N=C/c4cccc(O)c4O)cccc23)c1O")
4.54

----------
molecular target: Falcipain 2 (Plasmodium falciparum, UniProt Q9N6S8); experiment: Inhibition of Plasmodium falciparum recombinant falcipain-2
Sequence (Q9N6S8 whole entry): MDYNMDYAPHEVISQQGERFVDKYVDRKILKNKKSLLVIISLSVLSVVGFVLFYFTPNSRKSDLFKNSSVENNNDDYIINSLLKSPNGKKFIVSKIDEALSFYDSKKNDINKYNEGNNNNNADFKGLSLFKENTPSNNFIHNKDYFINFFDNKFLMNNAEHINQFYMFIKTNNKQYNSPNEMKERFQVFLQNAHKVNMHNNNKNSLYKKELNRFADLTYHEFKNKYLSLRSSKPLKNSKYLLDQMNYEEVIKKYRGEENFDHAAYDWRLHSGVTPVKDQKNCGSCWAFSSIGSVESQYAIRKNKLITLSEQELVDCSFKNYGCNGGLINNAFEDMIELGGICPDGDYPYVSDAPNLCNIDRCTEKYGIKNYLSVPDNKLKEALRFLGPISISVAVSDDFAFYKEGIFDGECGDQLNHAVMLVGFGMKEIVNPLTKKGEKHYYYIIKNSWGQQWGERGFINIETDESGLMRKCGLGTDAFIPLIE
property-name: IC50 (µM)

>>> obs_value("Cc1cccc(NC(=O)CCC(=O)N/N=C/c2cc(Cl)ccc2O)c1")
7.5
>>> obs_value("CC(C)C[C@H](NC(=O)[C@H]1O[C@@H]1C(=O)O)C(=O)NCCCCN=C(N)N")
0.015
>>> obs_value("Oc1ccc(/C=N/CC/N=C/c2ccc(O)cc2O)c(O)c1")
20.8

The values you see were collected from ChEMBL document CHEMBL1149285.
